This section lists IC50 readings for 1-acyl-sn-glycerol-3-phosphate acyltransferase beta (Homo sapiens, UniProt O15120).
parameter: IC50

COc1ccc(Cl)cc1-c1nc(N)cc(Nc2ccc(Cl)cc2)n1 7 µM
Cc1ccc(Cl)cc1-c1cc(Nc2ccc(Cl)cc2)nc(N)n1 0.022 µM
CCOc1ccc(Br)cc1-c1cc(Nc2ccc(/C(C)=N\O)cc2)nc(N)n1 0.084 µM

* * *

- Test system: Lewis lung carcinoma cell line
- procedure-summary: In vitro inhibitory activity against murine Lewis lung tumor LL2 cell line
- Format: functional, cell-based
- condition-label: Mus musculus
parameter: IC50 (nM)

Cc1ccc(Cl)cc1-c1cc(Nc2ccc(C(F)(F)F)cc2)nc(N)n1 160
